Data provenance: patent EP0350948B1

Test system: nitrosoamine-induced pancreatic cancer
experiment_notes: laser irradiation to the extirpated organ (excited fluorescent spectrum, N2-PLS measurement), tumor to tissue ratio
Assay type: in vivo, Golden hamsters
condition_context: i.v. 25 mg/kg bodyweight, organs extirpated at 24 hours after administration
Below, each of the molecules is paired with its reported tumor/tissue cancer/ kidney value.

{"molecule": "CC1=C(CCC(=O)NC(CC(=O)O)C(=O)O)C2=NC1=Cc1c(C)c(C(C)OC(C)C)c3[n]1[Ga][n]1c(c(C)c(CCC(=O)NC(CC(=O)O)C(=O)O)c1=C2)=CC1=NC(=C3)C(C)=C1C(C)OC(C)C (stereo not drawn) [(7) C3(iso)-Ga-DP-diAsp]", "tumor/tissue cancer/ kidney": 3.03}
{"molecule": "CC1=C(CCC(=O)NC(CC(=O)O)C(=O)O)C2=NC1=Cc1c(C)c(C(C)OCCC(C)CCCC(C)C)c3[n]1[Ga][n]1c(c(C)c(CCC(=O)NC(CC(=O)O)C(=O)O)c1=C2)=CC1=NC(=C3)C(C)=C1C(C)OCCC(C)CCCC(C)C (stereo not drawn) [(19) C10(H2Citro)-Ga-DP-diAsp]", "tumor/tissue cancer/ kidney": 11.49}
{"molecule": "CC1=C(CCC(=O)NC(CC(=O)O)C(=O)O)C2=NC1=Cc1c(C)c(C(C)OCCc3ccccc3)c3[n]1[Ga][n]1c(c(C)c(CCC(=O)NC(CC(=O)O)C(=O)O)c1=C2)=CC1=NC(=C3)C(C)=C1C(C)OCCc1ccccc1 (stereo not drawn) [(14) C8(Phenethyl)-Ga-DP-diAsp]", "tumor/tissue cancer/ kidney": 3.79}
{"molecule": "CC(C)=CCCC(C)CCOC(C)C1=C(C)C2=Cc3c(C(C)OCCC(C)CCC=C(C)C)c(C)c4[n]3[Ga][n]3c(c(C)c(CCC(=O)NC(CC(=O)O)C(=O)O)c3=CC3=NC(=C4)C(C)=C3CCC(=O)NC(CC(=O)O)C(=O)O)=CC1=N2 (stereo not drawn) [(18) C10(Citro)-Ga-DP-diAsp]", "tumor/tissue cancer/ kidney": 15.66}
{"molecule": "CCCCCCCCCOC(C)C1=C(C)c2cc3[nH]c(cc4nc(cc5[nH]c(cc1n2)c(C)c5C(C)OCCCCCCCCC)C(C)=C4CCC(=O)NC(CC(=O)O)C(=O)O)c(CCC(=O)NC(CC(=O)O)C(=O)O)c3C.[Ga] (stereo not drawn) [(15) C9-Ga-DP-diAsp]", "tumor/tissue cancer/ kidney": 3.54}
{"molecule": "C=CC1=C(C)C2=Cc3c(C(C)OCCO)c(C)c4[n]3[Ga][n]3c(c(C)c(CCC(=O)NC(CC(=O)O)C(=O)O)c3=CC3=NC(=C4)C(C)=C3CCC(=O)NC(CC(=O)O)C(=O)O)=CC1=N2 (stereo not drawn) [(2) monoEG-Ga-DP-diAsp]", "tumor/tissue cancer/ kidney": 1.32}
{"molecule": "CCCCCCCCOC(C)C1=C(C)C2=Cc3c(C(C)OCCCCCCCC)c(C)c4[n]3[Ga][n]3c(c(C)c(CCC(=O)NC(CC(=O)O)C(=O)O)c3=CC3=NC(=C4)C(C)=C3CCC(=O)NC(CC(=O)O)C(=O)O)=CC1=N2 (stereo not drawn) [(12) C8-Ga-DP-diAsp]", "tumor/tissue cancer/ kidney": 2.12}
{"molecule": "CCCCCCCOC(C)C1=C(C)C2=Cc3c(C(C)OCCCCCCC)c(C)c4[n]3[Ga][n]3c(c(C)c(CCC(=O)NC(CC(=O)O)C(=O)O)c3=CC3=NC(=C4)C(C)=C3CCC(=O)NC(CC(=O)O)C(=O)O)=CC1=N2 (stereo not drawn) [(11) C7-Ga-DP-diAsp]", "tumor/tissue cancer/ kidney": 4.88}
{"molecule": "CCCCCOC(C)C1=C(C)C2=Cc3c(C(C)OCCCCC)c(C)c4[n]3[Ga][n]3c(c(C)c(CCC(=O)NC(CC(=O)O)C(=O)O)c3=CC3=NC(=C4)C(C)=C3CCC(=O)NC(CC(=O)O)C(=O)O)=CC1=N2 (stereo not drawn) [(9) C5-Ga-DP-diAsp]", "tumor/tissue cancer/ kidney": 6.58}
{"molecule": "CCOC(C)C1=C(C)C2=Cc3c(C(C)OCC)c(C)c4[n]3[Ga][n]3c(c(C)c(CCC(=O)NC(CC(=O)O)C(=O)O)c3=CC3=NC(=C4)C(C)=C3CCC(=O)NC(CC(=O)O)C(=O)O)=CC1=N2 (stereo not drawn) [(5) C2-Ga-DP-diAsp]", "tumor/tissue cancer/ kidney": 1.25}
{"molecule": "CCCCOC(C)C1=C(C)C2=Cc3c(C(C)OCCCC)c(C)c4[n]3[Ga][n]3c(c(C)c(CCC(=O)NC(CC(=O)O)C(=O)O)c3=CC3=NC(=C4)C(C)=C3CCC(=O)NC(CC(=O)O)C(=O)O)=CC1=N2 (stereo not drawn) [(8) C4-Ga-DP-diAsp]", "tumor/tissue cancer/ kidney": 7.72}
{"molecule": "COC(C)C1=C(C)C2=Cc3c(C(C)OC)c(C)c4[n]3[Ga][n]3c(c(C)c(CCC(=O)NC(CC(=O)O)C(=O)O)c3=CC3=NC(=C4)C(C)=C3CCC(=O)NC(CC(=O)O)C(=O)O)=CC1=N2 (stereo not drawn) [(4) C1-Ga-DP-diAsp]", "tumor/tissue cancer/ kidney": 2.27}
{"molecule": "CC(C)=CCC/C(C)=C/COC(C)C1=C(C)C2=Cc3c(C(C)OC/C=C(\\C)CCC=C(C)C)c(C)c4[n]3[Ga][n]3c(c(C)c(CCC(=O)NC(CC(=O)O)C(=O)O)c3=CC3=NC(=C4)C(C)=C3CCC(=O)NC(CC(=O)O)C(=O)O)=CC1=N2 (stereo not drawn) [(17) C10(Gera)-Ga-DP-diAsp]", "tumor/tissue cancer/ kidney": 3.82}
{"molecule": "CCCCCCCCCCOC(C)C1=C(C)c2cc3[nH]c(cc4nc(cc5[nH]c(cc1n2)c(C)c5C(C)OCCCCCCCCCC)C(C)=C4CCC(=O)NC(CC(=O)O)C(=O)O)c(CCC(=O)NC(CC(=O)O)C(=O)O)c3C.[Ga] (stereo not drawn) [(16) C10-Ga-DP-diAsp]", "tumor/tissue cancer/ kidney": 16.44}
{"molecule": "CCCCCCCCCCCCOC(C)C1=C(C)c2cc3[nH]c(cc4nc(cc5[nH]c(cc1n2)c(C)c5C(C)OCCCCCCCCCCCC)C(C)=C4CCC(=O)NC(CC(=O)O)C(=O)O)c(CCC(=O)NC(CC(=O)O)C(=O)O)c3C.[Ga] (stereo not drawn) [(22) C12-Ga-DP-diAsp]", "tumor/tissue cancer/ kidney": 8.54}
{"molecule": "CCCCCCOC(C)C1=C(C)C2=Cc3c(C(C)OCCCCCC)c(C)c4[n]3[Ga][n]3c(c(C)c(CCC(=O)NC(CC(=O)O)C(=O)O)c3=CC3=NC(=C4)C(C)=C3CCC(=O)NC(CC(=O)O)C(=O)O)=CC1=N2 (stereo not drawn) [(10) C6-Ga-DP-diAsp]", "tumor/tissue cancer/ kidney": 6.86}
{"molecule": "CCCOC(C)C1=C(C)C2=Cc3c(C(C)OCCC)c(C)c4[n]3[Ga][n]3c(c(C)c(CCC(=O)NC(CC(=O)O)C(=O)O)c3=CC3=NC(=C4)C(C)=C3CCC(=O)NC(CC(=O)O)C(=O)O)=CC1=N2 (stereo not drawn) [(6) C3-Ga-DP-diAsp]", "tumor/tissue cancer/ kidney": 14.44}
{"molecule": "CC1=C(CCC(=O)NC(CC(=O)O)C(=O)O)C2=NC1=Cc1c(C)c(C(C)OCCO)c3[n]1[Ga][n]1c(c(C)c(CCC(=O)NC(CC(=O)O)C(=O)O)c1=C2)=CC1=NC(=C3)C(C)=C1C(C)OCCO (stereo not drawn) [(3) EG-Ga-DP-diAsp]", "tumor/tissue cancer/ kidney": 3.45}
